Here the recorded MIC P. mirabilis is given for each entry.
Tested on: Proteus mirabilis
Assay: MIC against Gram-negative bacteria: Proteus mirabilis
Assay type: cell-based
Settings: 10 h cultivation at 37° C., 5×10^5 CFU/mL, two-fold serial dilution
READOUT KIND: MIC P. mirabilis (µg/mL)

SUBSTANCE	RESULT UNIT	NUMERIC RESULT
PRT1145 (KINDCTSIPCMNEGFCQKSAHGFTCICPRGYTGAYCE; listed as Homo sapiens)	µg/mL	50
PRT1147 (ELDACSFKPCKNNGSCINKRENWDEQAYECVCHPPFTGKNCS; listed as Homo sapiens)	µg/mL	25
PRT1072 (TQQVCAGYCANNSTCTVNQGNQPQCRCLPGFLGDRCQ; listed as Homo sapiens)	µg/mL	12.5
PRT1083 (GTNVCAVANGGCQQLCLYRGRGQRACACAHGMLAEDGASCR; listed as Homo sapiens)	µg/mL	25
PRT1079 (DQCSLNNGGCSHNCSVAPGEGIVCSCPLGMELGPDNHTCQ; listed as Homo sapiens)	µg/mL	50
PRT1103 (DHDECASSPCQNGAVCQDGIDGYSCFCVPGYQGRHCD; listed as Homo sapiens)	µg/mL	50
PRT1045 (HGPGCQEHCLCLHGGVCQATSGLCQCAPGYTGPHCA; listed as Homo sapiens)	µg/mL	12.5
PRT1163 (SVNSCAVNPCLHNGECVADNTSRGYHCRCPPSWQGDDCS; listed as Homo sapiens)	µg/mL	12.5

----------
Test system: Pseudomonas aeruginosa
Assay: MIC against Gram-negative bacteria: Pseudomonas aeruginosa
Format: cell-based
Conditions: 10 h cultivation at 37° C., 5×10^5 CFU/mL, two-fold serial dilution
Entries and their MIC P. aeruginosa

SUBSTANCE	MIC P. aeruginosa [µg/mL]
PRT1159 (TTDDQENECQHEAVCKDEINRPRCSCSLSYIGRLCV; listed as Homo sapiens)	12.5
PRT1048 (YGKRCVPCKCANHSFCHPSNGTCYCLAGWTGPDCS; listed as Homo sapiens)	50
PRT1147 (ELDACSFKPCKNNGSCINKRENWDEQAYECVCHPPFTGKNCS; listed as Homo sapiens)	50
PRT1163 (SVNSCAVNPCLHNGECVADNTSRGYHCRCPPSWQGDDCS; listed as Homo sapiens)	12.5
PRT1184 (NPNDCLPDPCHSRGRCYDLVNDFYCACDDGWKGKTCH; listed as Homo sapiens)	12.5
PRT1049 (WGENCAQTCQCHHGGTCHPQDGSCICPLGWTGHHCL; listed as Homo sapiens)	12.5
PRT1175 (AEHACLSDPCHNRGSCKETSLGFECECSPGWTGPTCS; listed as Homo sapiens)	50
PRT1104 (EVDECASDPCKNEATCLNEIGRYTCICPHNYSGVNCE; listed as Homo sapiens)	50

----------
MIC against P. vulgaris values, listed per item
Test system: Proteus vulgaris
Experiment: MIC against Gram-negative bacteria: Proteus vulgaris
Assay type: cell-based
Details: 96-well plate, 5×10^5 CFU/mL, 37° C., 10 h
READOUT KIND: MIC against P. vulgaris (µg/mL)

SUBSTANCE	READOUT KIND	RESULT UNIT	NUMERIC RESULT
PRT478 (ATQYCSRAQCHGHGRCVRRNPSASTFLHLSTNSFRLVPGHAPGEPQLRPVGELSWADIDH; listed as Homo sapiens)	MIC against P. vulgaris	µg/mL	25
PRT505 (CECHVKGSHSAVCHLETGLCDCKPNVTGQQCDQCLHGYYGLDSGHGCRP; listed as Homo sapiens)	MIC against P. vulgaris	µg/mL	25
PRT465 (ALDPCASGPCLNGGSCSNTQDPQSYHCSCPRAFTGKDCG; listed as Homo sapiens)	MIC against P. vulgaris	µg/mL	12.5
PRT450 (KCLCPLGFLLANDSKTCEDIDE; listed as Homo sapiens)	MIC against P. vulgaris	µg/mL	50

----------
Test system: Citrobacter diversus
Experiment: MIC against Gram-negative bacteria: Citrobacter diversus
Type: cell-based
Details: C. diversus; 10 h cultivation at 37° C.

SUBSTANCE	MIC (µg/mL)
PRT1020 (SRQTCANNRHQCSVHAECRDYATGFCCSCVAGYTGNGRQCV; listed as Homo sapiens)	12.5
PRT989 (NIDDCATAVCFHGATCHDRVASFYCACPMGKTGLLCH; listed as Homo sapiens)	100
PRT927 (DIDDCSSTPCLNGAKCIDHPNGYECQCATGFTGVLCE; listed as Homo sapiens)	12.5
PRT936 (VLAPCSPNPCENAAVCKESPNFESYTCLCAPGWQGQRCT; listed as Homo sapiens)	50

----------
System: Klebsiella pneumonia
Test: MIC against Gram-negative bacteria: Klebsiella pneumonia
Type: cell-based
Settings: 96-well plate, 5×10^5 CFU/mL, 37° C., 10 h

SUBSTANCE	MIC K. pneumonia
PRT734 (NNNPCLENNGGCSHLCFALPGLHTPKCDCAFGTLQSDGKNCA; listed as Homo sapiens)	50 µg/mL
PRT676 (DINECAMPGVCRHGDCLNNPGSYRCVCPPGHSLGPSRTQCI; listed as Homo sapiens)	50 µg/mL
PRT704 (LLSNCQQLNCQYKCTMVRNSTRCYCEDGFEITEDGRSCK; listed as Homo sapiens)	25 µg/mL
PRT662 (RIYFCQIPCLNGGRCIGRDECWCPANSTGKFCH; listed as Homo sapiens)	50 µg/mL
PRT683 (DIDECSQDPSLCLPHGACKNLQGSYVCVCDEGFTPTQDQHGCE; listed as Homo sapiens)	25 µg/mL
PRT636 (DINECEHPGLCGPQGECLNTEGSFHCVCQQGFSISADGRTCE; listed as Homo sapiens)	25 µg/mL
PRT671 (RVVVCPLPCMNGGQCSSRNQCLCPPDFTGRFCQ; listed as Homo sapiens)	12.5 µg/mL
PRT654 (DVNECMGEEHCAPHGECLNSHGSFFCLCAPGFVSAEGGTSCQ; listed as Homo sapiens)	50 µg/mL

----------
MIC (μg/mL) E. cloacae values by entry
Test system: Enterobacter cloacae
Assay: MIC against Gram-negative bacteria: Enterobacter cloacae
Assay type: cell-based
Conditions: E. cloacae; 10 h cultivation at 37° C.; 5×10^5 CFU/mL
READOUT KIND: MIC (μg/mL) E. cloacae (µg/mL)

SUBSTANCE	READOUT KIND	NUMERIC RESULT
PRT769 (CNGVDHGCEFQCVSEGLSYRCLCPEGRQLQADGKSC; listed as Homo sapiens)	MIC (μg/mL) E. cloacae	12.5
PRT788 (WGPHCTSRCQCKNGALCNPITGACHCAAGFRGWRCE; listed as Homo sapiens)	MIC (μg/mL) E. cloacae	12.5
PRT237 (DINECTPPYSVYCGFNAVCYNVEGSFYCQCVPGYRLHSGNEQFSNSNENTCQ; listed as Homo sapiens)	MIC (μg/mL) E. cloacae	25
PRT806 (FGFQCSQHCDCHNGGQCSPTTGACECEPGYKGPRCQ; listed as Homo sapiens)	MIC (μg/mL) E. cloacae	12.5
PRT240 (NINECEVEPCKNGGICTDLVANYSCECPGEFMGRNCQ; listed as Homo sapiens)	MIC (μg/mL) E. cloacae	25
PRT265 (CQDGHGGCSEHANCSQVGTMVTCTCLPDYEGDGWSC; listed as Homo sapiens)	MIC (μg/mL) E. cloacae	25
PRT849 (CPCSAVTSTGSCSIKSSELEPECDQCKDGYIGPNCNKCENGYYNFDSICRK; listed as Homo sapiens)	MIC (μg/mL) E. cloacae	12.5
PRT764 (AQDKCALGTHGCQHICVNDRTGSHHCECYEGYTLNADKKTCS; listed as Homo sapiens)	MIC (μg/mL) E. cloacae	50
PRT222 (DVDECAQALHDCRPSQDCHNLPGSYQCTCPDGYRKIGPECV; listed as Homo sapiens)	MIC (μg/mL) E. cloacae	25
PRT767 (AIDLCAEGTHGCEHHCVNSPGSYFCHCQVGFVLQQDQ; listed as Homo sapiens)	MIC (μg/mL) E. cloacae	50
PRT171 (CDPSPCKNGGSCTDLENSYSCTCPPGFYGKIC; listed as Homo sapiens)	MIC (μg/mL) E. cloacae	25
PRT787 (RQICDCLNNSTCDHITGTCYCSPGWKGARCD; listed as Homo sapiens)	MIC (μg/mL) E. cloacae	12.5
PRT230 (DVDECADPRACPEHATCNNTVGNYSCFCNPGFESSSGHLSFQGLKASCE; listed as Homo sapiens)	MIC (μg/mL) E. cloacae	25
PRT192 (CPGSGERRICSHHGVCSNEGKCICQPDWTGKDC; listed as Homo sapiens)	MIC (μg/mL) E. cloacae	25
PRT763 (ALDRCALNTHGCEHICVNDRSGSYHCECYEGYTLNEDRKTCS; listed as Homo sapiens)	MIC (μg/mL) E. cloacae	12.5
PRT869 (CKCNLHATVCVYDNSKLTCECEHNTTGPDCGKCKKNYQGRPWSPGSYLPIPKGTANTCIP; listed as Homo sapiens)	MIC (μg/mL) E. cloacae	12.5
PRT836 (FGHDCSLTCDDCRNGGTCLLGLDGCDCPEGWTGLICN; listed as Homo sapiens)	MIC (μg/mL) E. cloacae	50
PRT242 (CEPGCKFGECVGPNKCRCFPGYTGKTC; listed as Homo sapiens)	MIC (μg/mL) E. cloacae	12.5
PRT229 (DINECLTSSVCPEHSDCVNSMGSYSCSCQVGFISRNSTCE; listed as Homo sapiens)	MIC (μg/mL) E. cloacae	12.5
PRT226 (DIDECESGAHQCSEAQTCVNFHGGYRCVDTNRCVEPYIQVSENRCL; listed as Homo sapiens)	MIC (μg/mL) E. cloacae	50
PRT207 (RSSNCSAQCHNHGVCNHKQECHCHAGWAPPHCA; listed as Homo sapiens)	MIC (μg/mL) E. cloacae	12.5
PRT263 (CSKNNGGCSPYATCKSTGDGQRTCTCDTAHTVGDGLTC; listed as Homo sapiens)	MIC (μg/mL) E. cloacae	12.5
PRT799 (FHACSCHNGASCSAEDGACHCTPGWTGLFCT; listed as Homo sapiens)	MIC (μg/mL) E. cloacae	5
PRT879 (TLKQCASAPCRNGGVCREGWNRFICDCIGTGFLGRVCE; listed as Homo sapiens)	MIC (μg/mL) E. cloacae	25
